Test system: M14
Test: NCI tumour cell line growth inhibition, 48 h
The source made the active and inactive calls. Cut-off read from the data, not from the text of the source: active = GI50 up to about 1.1 µM and inactive = higher.
The reply should be one of these categories: true for active, false for inactive

IN: Which outcome was assigned to O=C1C=Cc2ncccc2C1=O in this test?
OUT: false

IN: // next record C1=CC2C=CC(C=C1)P2c1ccccc1 (stereo unspecified)
OUT: false

IN: Subsequent entry: CC(CO)[C@H]1OC(=O)C=C2[C@@]13O[C@@H]3[C@H]1OC(=O)[C@@]3(C)[C@H]4O[C@H]4C[C@@]2(C)[C@@H]13 (stereo partly specified)
OUT: false

IN: And the next one, CNC(=O)c1nnn(C2CCCCC2)c1S ?
OUT: false

IN: And then C=CC(Br)(CBr)CCC(Br)C(C)(C)Cl (stereo unspecified) , what is it?
OUT: false

IN: Please do the same for CN(C)CCCn1nc(N)c2nc3cc(Cl)ccc3nc21 as well.
OUT: false

IN: Okay, and Clc1ccc(C(Cc2cccc(Cl)c2)c2c(Cl)nc(N3CCNCC3)nc2Cl)cc1 (stereo unspecified) ?
OUT: false

IN: Also, Cc1ccc2c(c1)C(=C(C#N)C#N)CCCS2(=O)=O please.
OUT: false

IN: Then what about the molecule COc1ccc(-c2cc(O)c3nc4ccccc4n3c2)cc1 ?
OUT: false

IN: Thanks! And O=C(C1=CCC2(CC1)OCCO2)N(Cc1ccccc1)c1ccccc1I ?
OUT: false

IN: Entry Cc1c(Cl)ccc2c1NC(=O)C2(O)C1Cc2ccccc2C1=O (stereo unspecified) please
OUT: false

IN: Repeat for the following molecule: CC(C)(C)OC(=O)N(CCCCNC(=O)C(F)(F)F)CCCNC(=O)C(F)(F)F
OUT: false

IN: // next record CCN(CC)c1cc2c3c(c1)CCCN3CCC2
OUT: false

IN: Another molecule: COc1cc2nc3c(=C(C#N)C#N)c4ccccc4n3c(=O)c2cc1OC
OUT: false

IN: # iterate: C=C(C)[C@@H]1CC=C(CO)CC1
OUT: false

IN: Can you check CC1=C[P+](Cc2ccccc2)(c2ccccc2)CC1 (stereo unspecified) next?
OUT: false

IN: Also Cc1nc(Nc2ccccc2Cl)sc1C(=O)CC(=O)C(=O)Nc1c(Cl)cccc1Cl ?
OUT: false

IN: # repeat for O=C1CCC2(O)C3Cc4ccc(Oc5nnnn5-c5ccccc5)c5c4C2(CCN3CC2CC2)C1O5 (stereo unspecified)
OUT: false

IN: Another: O=C(CC(=O)Nc1ccccc1)N/N=C/c1cc(/N=N/c2ccc(Br)cc2)ccc1O
OUT: false

IN: Now this one: CCOC(=O)Cn1c(=O)n(C)c(=O)c2c1ncn2Cc1ccccc1
OUT: false

IN: Do the same for CCO/N=C\c1ccc2oc(-c3ccccc3)cc(=O)c2c1 please
OUT: true

IN: And then O=C(/C=C1\Nc2ccc([N+](=O)[O-])cc2N\C1=C/C(=O)c1ccc(F)cc1)c1ccc(F)cc1 , what is it?
OUT: false

IN: Record: Nc1ccc2c(c1)Oc1c(F)c(F)cc3c(=O)c(C(=O)O)cn-2c13
OUT: false

IN: Would you mind doing Cc1[nH]nc2c1C(=O)C=C(N(CCO)c1ccccc1)C2=O as well?
OUT: false

IN: Note, next up: Cc1ccc(C2=C(c3ccccc3)C(=O)C(c3ccccc3)=C2c2ccc(C)cc2)cc1
OUT: false

IN: And for COC(=O)C1(Cc2ccccc2)Cc2cc3c(cc2C1)CCC3 ?
OUT: false

IN: Input CC1=NN(C(=O)CC(=O)Nc2cccc(C)c2)C(=O)C1/N=N\c1ccc(S(=O)(=O)c2ccc(/N=N/C3C(=O)N(C(=O)CC(=O)Nc4cccc(C)c4)N=C3C)cc2)cc1 (stereo unspecified)
OUT: false

IN: Item: O=C1C(N2CCOCC2)=C(Cl)C(=O)c2ncccc21
OUT: false

IN: And for N#CC1C(=O)NC23CCCCC2C1c1ccccc1O3 (stereo unspecified) ?
OUT: false

IN: Thanks! And O=C(O)c1ccccc1/C=N/N=C1NCCCCN1 ?
OUT: false

IN: Subsequent entry: CC1(C)OC[C@@H](/C=C\CCO[Si](c2ccccc2)(c2ccccc2)C(C)(C)C)N1C(=O)c1ccccc1
OUT: false

====

What GI50 was measured for each of the following?
System: MDA-MB-435
Assay: NCI tumour cell line growth inhibition, 48 h
Calls of active or inactive are those of the source. No stated cut-off is given here; in the data, active = GI50 up to about 1.1 µM and inactive = higher.

IN: Report GI50 for COc1cc2nc3c(=C(C#N)C#N)c4ccccc4n3c(=O)c2cc1OC please.
OUT: > 100 µM (inactive)

IN: What do we get for Oc1ccccc1/C=N/Nc1nc(N/N=C/c2ccccc2O)nc(N/N=C/c2ccccc2O)n1 ?
OUT: > 100 µM (inactive)

IN: # repeat for NS(=O)(=O)c1nnc(/N=C(/CCC(=O)O)C(=O)O)s1
OUT: > 100 µM (inactive)

IN: Try this molecule too: O=C1CCN2c3ccccc3[C@H]3Cc4cccc(c4[C@@H]2C3)CCO1
OUT: 40.4 µM (inactive)

====

Test system: Malme-3M
Assay: NCI tumour cell line growth inhibition, 48 h
Active and inactive are the calls of the source. Rule as the data show it: active = GI50 up to about 1.1 µM and inactive = higher.
test readout: GI50

IN: # get_value(readout='GI50', item= COC(=O)[C@@H](NC(=O)[C@H](N)Cc1ccc(N(CCCl)CCCl)cc1)C(C)C )
OUT: 1.92 µM (inactive)

IN: What do you get for C[Si](C)(C)OC1(C#N)c2ccccc2CCCC12CCCC2 (configuration not stated) ?
OUT: 39.4 µM (inactive)

IN: Next up: COC(=O)C(=O)C(CC(=O)Nc1ccc(C)cc1)C(=O)OC (configuration not stated)
OUT: > 100 µM (inactive)

IN: // query: OCCCCn1cnc2c(O)ncnc21
OUT: > 100 µM (inactive)

IN: What do you have for Cc1ccc(C2=C(c3ccccc3)C(=O)C(c3ccccc3)=C2c2ccc(C)cc2)cc1 ?
OUT: 31 µM (inactive)

IN: Please do the same for O=C1NC(=S)N/C1=C/c1c(-c2ccccc2)[nH]c2ccccc12 as well.
OUT: 13.5 µM (inactive)

IN: And CN1CC(S(=O)(=O)c2ccccc2)CC(S(=O)(=O)c2ccccc2)C1c1ccccc1 (configuration not stated) ?
OUT: 13.6 µM (inactive)

IN: Entry to check: O=C(/C=C1\Nc2ccc([N+](=O)[O-])cc2N\C1=C/C(=O)c1ccc(F)cc1)c1ccc(F)cc1
OUT: > 100 µM (inactive)

IN: What would you report for Nc1cc(S(=O)(=O)O)cc2cc(S(=O)(=O)O)c(/N=N/c3ccc(-c4ccc(/N=N/c5c(S(=O)(=O)O)cc6cc(S(=O)(=O)O)cc(N)c6c5O)cc4)cc3)c(O)c12 ?
OUT: > 100 µM (inactive)

IN: Now the same for Cc1c(Cl)cccc1NC(=O)C(=O)C1C(=O)NC(=O)NC1=O
OUT: > 100 µM (inactive)

IN: // repeat for CC(C)C1(C)N=C(C(F)(F)F)c2cc(C(=O)C(F)(F)F)c3ccccc3c2N1 (configuration not stated) and report
OUT: 3 µM (inactive)

IN: Also check CN(N)c1nc(N)c(C#N)c(C#N)c1C#N
OUT: > 10 µM (inactive)

====

Test system: SW-620
Assay: NCI tumour cell line growth inhibition, 48 h
The source made the active and inactive calls. Rule as the data show it: active = GI50 up to about 1.1 µM and inactive = higher.
The categories you may choose from are active, inactive

IN: So what was the verdict on Clc1cc2c(cc1Cl)CC(NCCN1CCCC1)CC2 (stereo unspecified) in this test?
OUT: inactive

IN: Repeat with COc1ccc(C(OCC2OC(n3cc(C)c(=O)[nH]c3=O)CC2n2cc(Cn3cc(I)c(=O)[nH]c3=O)nn2)(c2ccccc2)c2ccccc2)cc1 (stereo unspecified)
OUT: inactive

IN: Please do the same for C1COC2SC3=C(SC(=C4SC5=C(SCCS5)S4)S3)SC2O1 (stereo unspecified) as well.
OUT: inactive

IN: Repeat with COc1ccc(N[S+]([O-])c2ccc(-c3ccccc3)cc2)cc1 (stereo unspecified)
OUT: inactive

IN: Repeat with COCCNC(=O)C1C(=O)N(CCOC)C(=O)/C1=N/N (stereo unspecified)
OUT: inactive

IN: Proceed to O=C(OCC1OC(c2nn[nH]n2)C(OC(=O)c2ccccc2)C1OC(=O)c1ccccc1)c1ccccc1 (stereo unspecified)
OUT: inactive

IN: Ok, now CC[C@H]1C[C@@H](O)[C@@H]2[C@H](O)[C@H](O)CN2C1
OUT: inactive

IN: Follow-up item: N/C(=N\N=C\c1c[nH]c2ccccc12)Nc1ccccc1
OUT: active

IN: What do you get for CCOC(=O)c1ccc(Nc2c3c(nc4ccccc24)CCCC3)cc1 ?
OUT: inactive

IN: Now the same for CC(=O)/C=C1\Nc2sc(C)c(C)c2C(=O)S1
OUT: inactive

IN: Now give it for CSc1nc2nc(C(O)C(O)C(O)CO)cnc2c(=O)[nH]1 (stereo unspecified) too.
OUT: inactive
